Recorded values, source PubChem BioAssay AID1745844.

# Test system: rodent lifetime carcinogenesis bioassay, tumor incidence TD50
# experimental-details: carcinogenic potency in animals, long-term in vivo studies, CPDB compilation (AID 1745844)
# setup-conditions: mouse; strain B6AKF1; females; oral dosing; site: any site (literature study); lesion: several types; types named in the paper; dosed 76 weeks; study length 76 weeks
Calls of active or inactive are those of the source. No rule for the calls is given here.
assay-endpoint: carcinogen call

[[record]]
molecule = "S=C(S)NCCNC(=S)S"
assay_endpoint = "carcinogen call"
assay_value = "negative (inactive)"

[[record]]
molecule = "CC(C)CCCCCOC(=O)COc1ccc(Cl)cc1Cl"
assay_endpoint = "carcinogen call"
assay_value = "negative (inactive)"

[[record]]
molecule = "CN(C)C(=S)S[Se](SC(=S)N(C)C)(SC(=S)N(C)C)SC(=S)N(C)C"
assay_endpoint = "carcinogen call"
assay_value = "negative (inactive)"

[[record]]
molecule = "CC(Oc1cc(Cl)c(Cl)cc1Cl)C(=O)O (stereo not drawn)"
assay_endpoint = "carcinogen call"
assay_value = "negative (inactive)"


Ask: Endpoint output: carcinogen call of CC=CC(=O)Oc1c(C(C)CCCCCC)cc([N+](=O)[O-])cc1[N+](=O)[O-] (stereo not drawn) . Value?
Result: negative (inactive)

Ask: Endpoint output: carcinogen call of CCCCOC(=O)COc1ccc(Cl)cc1Cl . Value?
Result: negative (inactive)

Ask: Endpoint output: carcinogen call of C=C(C)C(=O)Nc1ccc(Cl)c(Cl)c1 . Value?
Result: negative (inactive)

====

# System: rodent lifetime carcinogenesis bioassay, tumor incidence TD50
# experimental-details: carcinogenic potency in animals, long-term in vivo studies, CPDB compilation (AID 1745844)
# setup-conditions: rat; strain Bethesda black; both sexes; in feed; site: liver; lesion: carcinoma; dosed 104 weeks; study length 104 weeks
assay-endpoint: TD50

Ask: Endpoint output: TD50 of Cc1cc(C)c(N=Nc2c(O)c(S(=O)(=O)O)cc3cc(S(=O)(=O)O)ccc23)cc1C . Value?
Result: 2480 mg/kg/day

====

# System: rodent lifetime carcinogenesis bioassay, tumor incidence TD50
# experimental-details: carcinogenic potency in animals, long-term in vivo studies, CPDB compilation (AID 1745844)
# setup-conditions: monkey; strain Cynomolgus [Macaca fascicularis]; both sexes; in feed; site: any site (literature study); lesion: malignant tumor; dosed 258 weeks; study length 1208 weeks
assay-endpoint: TD50 (mg/kg/day)
The figure you give is taken to be in mg/kg/day; do not add the unit.

Ask: Endpoint output: TD50 of CCOC(N)=O . Value?
Result: 21.5

====

# Test system: rodent lifetime carcinogenesis bioassay, tumor incidence TD50
# experimental-details: carcinogenic potency in animals, long-term in vivo studies, CPDB compilation (AID 1745844)
# setup-conditions: mouse; strain CF-1; females; in feed; site: liver; lesion: liver-cell tumor, type B; dosed 108 weeks; study length 128 weeks
assay-endpoint: TD50 (mg/kg/day)
The figure you give is taken to be in mg/kg/day; do not add the unit.

Ask: Query the reported TD50 for rodent lifetime carcinogenesis bioassay, tumor incidence TD50; item: ClC1=C(Cl)[C@]2(Cl)[C@@H]3[C@@H]4C[C@@H]([C@H]5O[C@@H]45)[C@@H]3[C@@]1(Cl)C2(Cl)Cl
Result: 9.72

====

# Test system: rodent lifetime carcinogenesis bioassay, tumor incidence TD50
# experimental-details: carcinogenic potency in animals, long-term in vivo studies, CPDB compilation (AID 1745844)
# setup-conditions: rat; strain Wistar; males; in feed; site: forestomach; lesion: squamous-cell carcinoma; dosed 90 weeks; study length 102 weeks
assay-endpoint: TD50
Give the figure together with its unit, number first.

Ask: Endpoint output: TD50 of O=P(O)(OCC(Br)CBr)OCC(Br)CBr (stereo unspecified) . Value?
Result: 979 mg/kg/day

====

# Test system: rodent lifetime carcinogenesis bioassay, tumor incidence TD50
# experimental-details: carcinogenic potency in animals, long-term in vivo studies, CPDB compilation (AID 1745844)
# setup-conditions: mouse; strain C3H/HeN-MTV-/Nctr (MTV-); females; in feed; site: cervix uteri; lesion: adenocarcinoma; dosed 125 weeks; study length 125 weeks
assay-endpoint: TD50 (mg/kg/day)
The figure you give is taken to be in mg/kg/day; do not add the unit.

Ask: Query the reported TD50 for rodent lifetime carcinogenesis bioassay, tumor incidence TD50; item: CC/C(=C(/CC)c1ccc(O)cc1)c1ccc(O)cc1
Result: 1.17

====

# System: rodent lifetime carcinogenesis bioassay, tumor incidence TD50
# experimental-details: carcinogenic potency in animals, long-term in vivo studies, CPDB compilation (AID 1745844)
# setup-conditions: rat; strain Fischer 344; females; in feed; site: liver; lesion: hepatocholangiocarcinoma; dosed 103 weeks; study length 104 weeks
assay-endpoint: TD50

Ask: Endpoint output: TD50 of Nc1c(Br)cc(Br)c2c1C(=O)c1ccccc1C2=O . Value?
Result: 566 mg/kg/day

====

# System: rodent lifetime carcinogenesis bioassay, tumor incidence TD50
# experimental-details: carcinogenic potency in animals, long-term in vivo studies, CPDB compilation (AID 1745844)
# setup-conditions: rat; strain Fischer 344; females; in drinking water; site: tongue; lesion: squamous-cell carcinoma + squamous-cell papilloma; dosed 96 weeks; study length 97 weeks
assay-endpoint: TD50 (mg/kg/day)
The figure you give is taken to be in mg/kg/day; do not add the unit.

Ask: Endpoint output: TD50 of COc1cc(-c2ccc(N=Nc3c(S(=O)(=O)O)cc4cc(S(=O)(=O)O)cc(N)c4c3O)c(OC)c2)ccc1N=Nc1c(S(=O)(=O)O)cc2cc(S(=O)(=O)O)cc(N)c2c1O . Value?
Result: 238

====

# Tested on: rodent lifetime carcinogenesis bioassay, tumor incidence TD50
# experimental-details: carcinogenic potency in animals, long-term in vivo studies, CPDB compilation (AID 1745844)
# setup-conditions: rat; strain Wistar; females; in feed; site: kidney; lesion: several types; types named in the paper; dosed 96 weeks; study length 101 weeks
assay-endpoint: TD50 (mg/kg/day)
The figure you give is taken to be in mg/kg/day; do not add the unit.

Ask: Query the reported TD50 for rodent lifetime carcinogenesis bioassay, tumor incidence TD50; item: O=P(O)(OCC(Br)CBr)OCC(Br)CBr (stereo unspecified)
Result: 608

====

# Test system: rodent lifetime carcinogenesis bioassay, tumor incidence TD50
# experimental-details: carcinogenic potency in animals, long-term in vivo studies, CPDB compilation (AID 1745844)
# setup-conditions: mouse; strain B6C3F1; females; in feed; site: liver; lesion: hepatocellular adenoma + hepatocellular carcinoma; dosed 78 weeks; study length 95 weeks
The source made the active and inactive calls. No rule for the calls is given here.
Use one of these outcomes when replying: 1 (yes) = active, 0 (no) = inactive

[[record]]
record_smiles = "Nc1ccc(Cl)cc1N"
class_name = "1 (yes)"

[[record]]
record_smiles = "c1ccc(NNc2ccccc2)cc1"
class_name = "1 (yes)"

[[record]]
record_smiles = "Nc1ccc(Cl)c(N)c1"
class_name = "1 (yes)"

[[record]]
record_smiles = "O=[N+]([O-])c1ccc2nc[nH]c2c1"
class_name = "1 (yes)"

[[record]]
record_smiles = "[O-]/[N+](=N\\O)c1ccccc1"
class_name = "1 (yes)"


Now for a further molecule.
Ask: GET /call?item= CN(C)c1ccc(N=NS(=O)(=O)O)cc1 returns the recorded outcome of this test.
Result: 0 (no)

====

# System: rodent lifetime carcinogenesis bioassay, tumor incidence TD50
# experimental-details: carcinogenic potency in animals, long-term in vivo studies, CPDB compilation (AID 1745844)
# setup-conditions: mouse; strain CDF1; males; in feed; site: all sites; lesion: lymphoma and leukemia, combined; dosed 84 weeks; study length 84 weeks
assay-endpoint: TD50

Ask: Endpoint output: TD50 of Cc1cnc2ccc3c(nc(N)n3C)c2n1 . Value?
Result: 109 mg/kg/day

====

# System: rodent lifetime carcinogenesis bioassay, tumor incidence TD50
# experimental-details: carcinogenic potency in animals, long-term in vivo studies, CPDB compilation (AID 1745844)
# setup-conditions: rat; strain Crj:Wistar; males; in feed; site: stomach, glandular; lesion: adenocarcinoma; dosed 104 weeks; study length 104 weeks
assay-endpoint: TD50

Ask: Query the reported TD50 for rodent lifetime carcinogenesis bioassay, tumor incidence TD50; item: Oc1ccccc1O
Result: 200 mg/kg/day

====

# Test system: rodent lifetime carcinogenesis bioassay, tumor incidence TD50
# experimental-details: carcinogenic potency in animals, long-term in vivo studies, CPDB compilation (AID 1745844)
# setup-conditions: rat; strain Sprague-Dawley; females; inhaled; site: liver; lesion: angiosarcoma; dosed 52 weeks; study length 111 weeks
assay-endpoint: TD50

Ask: Endpoint output: TD50 of C=CCl . Value?
Result: 20.2 mg/kg/day

====

# System: rodent lifetime carcinogenesis bioassay, tumor incidence TD50
# experimental-details: carcinogenic potency in animals, long-term in vivo studies, CPDB compilation (AID 1745844)
# setup-conditions: mouse; strain B6C3F1; females; in feed; site: liver; lesion: hepatocellular adenoma + hepatocellular carcinoma + neoplastic nodule; dosed 96 weeks; study length 104 weeks
assay-endpoint: TD50 (mg/kg/day)
The figure you give is taken to be in mg/kg/day; do not add the unit.

Ask: Endpoint output: TD50 of Nc1ccc(N)c(Cl)c1 . Value?
Result: 1590
